- Measurement Target: TGF-beta receptor type-1 (Homo sapiens, UniProt P36897)
- Sequence (P36897 whole entry, the tested form may be a part): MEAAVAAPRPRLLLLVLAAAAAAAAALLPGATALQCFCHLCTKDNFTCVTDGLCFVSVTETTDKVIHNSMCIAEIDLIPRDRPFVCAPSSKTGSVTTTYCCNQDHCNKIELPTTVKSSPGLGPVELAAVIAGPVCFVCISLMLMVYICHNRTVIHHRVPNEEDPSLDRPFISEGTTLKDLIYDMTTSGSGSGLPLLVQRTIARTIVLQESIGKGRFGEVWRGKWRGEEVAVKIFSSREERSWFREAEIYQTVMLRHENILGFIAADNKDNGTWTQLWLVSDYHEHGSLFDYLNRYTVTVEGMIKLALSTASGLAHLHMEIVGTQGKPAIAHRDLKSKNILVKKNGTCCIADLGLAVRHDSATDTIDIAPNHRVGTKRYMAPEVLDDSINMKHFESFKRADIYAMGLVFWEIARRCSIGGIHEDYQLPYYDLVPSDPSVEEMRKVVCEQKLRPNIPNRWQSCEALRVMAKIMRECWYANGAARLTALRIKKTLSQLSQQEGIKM
- Procedure Details: Inhibition of human recombinant GST-fused ALK5 expressed in insect Sf9 cells using casein as substrate by radiometric kinase assay
Recorded Endpoint: IC50 (nM)

Determine reported IC50 for `Cc1cccc(-c2nn(CC(=S)Nc3ccccc3)cc2-c2ccc3nccnc3c2)n1` ; test system: TGF-beta receptor type-1 (Homo sapiens, UniProt P36897). 13

Provide the reported IC50 (system: TGF-beta receptor type-1 (Homo sapiens, UniProt P36897)) for `Cc1cccc(-c2nn(CCC(=O)Nc3ccccc3)cc2-c2ccc3nccnc3c2)n1` 82

Retrieve IC50 on TGF-beta receptor type-1 (Homo sapiens, UniProt P36897); query `Cc1cccc(-c2nn(CC(=O)Nc3ccccc3)cc2-c2ccc3nccnc3c2)n1` 38

1. Cc1cccc(-c2nn(CC(=S)Nc3cccc(C#N)c3)cc2-c2ccc3nccnc3c2)n1
2. Cc1cccc(-c2nn(CC(=O)Nc3cccc(C#N)c3)cc2-c2ccc3nccnc3c2)n1
Select one. Lower IC50: 1 or 2 Selection: enter the item's label. 1

a. Cc1cccc(-c2c(-c3ccc4nccnc4c3)cnn2CC(=O)Nc2ccccc2)n1
b. Cc1cccc(-c2nn(CC(=O)Nc3cccc(C(N)=O)c3)cc2-c2ccc3nccnc3c2)n1
c. Cc1cccc(-c2c(-c3ccc4nccnc4c3)cnn2CC(=O)Nc2cccc(C#N)c2)n1
Output the entries ranked by IC50 from maximum down to minimum. Answer format: the labels, ordered as requested. c, a, b

---

- Species on record: Homo sapiens
- Procedure Details: Selectivity index, ratio of IC50 for human recombinant p38alpha to IC50 for human recombinant ALK5
The following compounds are shown together with reported Ratio IC50 values.

Supply reported Ratio IC50 belonging to this compound: `Cc1cccc(-c2nn(CC(=O)Nc3ccccc3)cc2-c2ccc3nccnc3c2)n1` > 26

Next:
Specify Ratio IC50 for `Cc1cccc(-c2[nH]c(Cc3cccc(C(N)=O)c3)nc2-c2ccc3nccnc3c2)n1` and stop. 28

Please give the documented Ratio IC50 of `Cc1cccc(-c2c(-c3ccc4nccnc4c3)cnn2CC(=O)Nc2cccc(C#N)c2)n1` > 1

---

- Measurement Target: TGF-beta receptor type-1 (Homo sapiens)
- Procedure Details: Inhibition of human recombinant GST-fused ALK5 expressed in insect Sf9 cells using casein as substrate by radiometric kinase assay
pIC50: −log10 of the molar value.
Recorded Endpoint: pIC50

Study these solved cases before continuing.
Read off the recorded pIC50 for `Cc1cccc(-c2nn(CC(=S)Nc3ccccc3)cc2-c2ccc3nc(C)c(C)nc3c2)n1` < 6.00

Identify the reported pIC50 for the following entry. `Cc1cccc(-c2nn(CCC(=O)Nc3cccc(C#N)c3)cc2-c2ccc3nc(C)c(C)nc3c2)n1` < 6.00

For the compound `Cc1cccc(-c2nn(CC(=S)Nc3cccc(C#N)c3)cc2-c2ccc3nc(C)c(C)nc3c2)n1` , report pIC50. < 6.00

Answer with the recorded pIC50 for the compound listed here: `Cc1cccc(-c2nn(CC(=O)Nc3cccc(C(N)=O)c3)cc2-c2ccc3nc(C)c(C)nc3c2)n1` < 6.00

More entries:
Could you please provide reported pIC50 for `Cc1cccc(-c2nn(CC(=O)Nc3cccc(C#N)c3)cc2-c2ccc3nc(C)c(C)nc3c2)n1` ? Thanks! < 6.00

Return pIC50 for the following compound: `Cc1cccc(-c2nn(CC(=O)Nc3ccccc3)cc2-c2ccc3nc(C)c(C)nc3c2)n1` < 6.00

Determine its reported pIC50: `Cc1cccc(-c2c(-c3ccc4nc(C)c(C)nc4c3)cnn2CC(=O)Nc2ccccc2)n1` < 6.00

Look up and report measured pIC50 for this entry: `Cc1cccc(-c2c(-c3ccc4nc(C)c(C)nc4c3)cnn2CC(=O)Nc2cccc(C#N)c2)n1` < 6.00

---

- Species: Homo sapiens
- Procedure Details: Selectivity index, ratio of IC50 for human recombinant p38alpha to IC50 for human recombinant ALK5
Below, each entry is listed alongside its reported Ratio IC50.

Fill in reported Ratio IC50 for this entry: `Cc1cccc(-c2nn(CCC(=O)Nc3ccccc3)cc2-c2ccc3nccnc3c2)n1` > 12

Could you please provide reported Ratio IC50 for `Cc1cccc(-c2nn(CC(=O)Nc3cccc(C(N)=O)c3)cc2-c2ccc3nccnc3c2)n1` ? Thanks! > 21

Give Ratio IC50 for `Cc1cccc(-c2c(-c3ccc4nccnc4c3)cnn2CC(=O)Nc2ccccc2)n1` > 7

Please report the measured Ratio IC50 for `Cc1cccc(-c2nn(CC(=S)Nc3ccccc3)cc2-c2ccc3nccnc3c2)n1` > 77

Report measured Ratio IC50; entry is `Cc1cccc(-c2nn(CC(=S)Nc3cccc(C#N)c3)cc2-c2ccc3nccnc3c2)n1` > 38

Next up:
For `Cc1cccc(-c2nn(CC(=O)Nc3cccc(C#N)c3)cc2-c2ccc3nccnc3c2)n1` , write its Ratio IC50. > 7
